Test: Plasma pharmacokinetics and brain distribution after single IV, IP and oral administration
Format: in vivo
Conditions: male, C57BL/6, mouse, in vivo, ip, 10 mg/kg, Mean plasma conc.
Where a name gives a salt, the structure may show the parent alone.
Provide the recorded concentration at 3 h for the entries that follow.
Give bare numbers, in ng/mL.

Previously resolved entries follow.
Compound	Unit Text	concentration at 3 h
Cc1nc2ccccn2c1-c1csc(Nc2ccc3c(c2)OC(F)(F)O3)n1 [Compound 16, hydrochloride]	ng/mL	1.43
[2H]C([2H])([2H])Oc1ccc(Nc2nc(-c3c(C)nc4ccccn34)cs2)cc1 [Compound 15, hydrochloride]	ng/mL	160

Data request: State its concentration at 3 h: [2H]C1([2H])Oc2ccc(Nc3nc(-c4c(C)nc5ccccn45)cs3)cc2O1 [Compound 17, hydrochloride]
Data returned: 74.9

* * *

Experiment: Plasma pharmacokinetics and brain distribution after single IV, IP and oral administration
Assay type: in vivo
Conditions: male, C57BL/6, mouse, in vivo; IV 2 mg/kg, 0.35 hr; read-out: Brain-to-plasma ratio
Counter-ions that a name gives are not always drawn.
Provide the recorded Kp at 0.35 h for the entries that follow.
One number for each entry.

Compound	Measurement
[2H]C1([2H])Oc2ccc(Nc3nc(-c4c(C)nc5ccccn45)cs3)cc2O1 [Compound 17, hydrochloride]	4.03

Okay, now this compound:
Data request: State its Kp at 0.35 h: [2H]C([2H])([2H])Oc1ccc(Nc2nc(-c3c(C)nc4ccccn34)cs2)cc1 [Compound 15, hydrochloride]
Data returned: 1.55

* * *

Assay: Plasma pharmacokinetics and brain distribution after single IV, IP and oral administration
Type: in vivo
Conditions: male, C57BL/6, mouse, in vivo, po, 10 mg/kg, Mean brain conc.
Counter-ions that a name gives are not always drawn.
Quantity Name: concentration at 24 h (ng/g)
Numbers only, in ng/g.

Molecule	concentration at 24 h, ng/g
Cc1nc2ccccn2c1-c1csc(Nc2ccc3c(c2)OC(F)(F)O3)n1 [Compound 16, hydrochloride]	0
[2H]C1([2H])Oc2ccc(Nc3nc(-c4c(C)nc5ccccn45)cs3)cc2O1 [Compound 17, hydrochloride]	0

Okay, now this molecule:
Data request: State its concentration at 24 h: [2H]C([2H])([2H])Oc1ccc(Nc2nc(-c3c(C)nc4ccccn34)cs2)cc1 [Compound 15, hydrochloride]
Data returned: 0

* * *

Assay: Plasma pharmacokinetics and brain distribution after single IV, IP and oral administration
Format: in vivo
Details: male, C57BL/6, mouse, brain, iv, 10 mg/kg, IV 10 mg/kg; read-out: brain-to-plasma ratio, range over time
Experimental: The objective of this study was to investigate the plasma pharmacokinetics and brain distribution of Compound (14 in male C57BL/6 mice following a single intravenous, intraperitoneal and oral administration. A group of sixty-three male mice were divided into three groups (Group 1: 2 mg/kg/IV; Group 2: 10 mg/kg/IP and Group 3: 10 mg/kg/PO) with each group comprising of twenty-one mice. […]
Structures can show the parent of a compound that is named as a salt.
Quantity Name: Kp

Data request: State its Kp: Cc1nc2ccccn2c1-c1csc(Nc2ccc3c(c2)OC(F)(F)O3)n1 [Compound 16, hydrochloride]
Data returned: 0.96 to 2.78

* * *

Assay: Plasma pharmacokinetics and brain distribution after single IV, IP and oral administration
Assay type: in vivo
Conditions: male, C57BL/6, mouse; plasma, IV 10 mg/kg; read-out: CL, plasma clearance
Structures can show the parent of a compound that is named as a salt.
Quantity Name: clearance (mL/min/kg)
Numbers only, in mL/min/kg.

Data request: State its clearance: Cc1nc2ccccn2c1-c1csc(Nc2ccc3c(c2)OC(F)(F)O3)n1 [Compound 16, hydrochloride]
Data returned: 230

Origin of measurements: patent US12215106B2
